Give measured percent BAPC hydrolysis/cleavage (non-enzymatic) in phosphate buffer for each item. Keep answers brief.
# TEST_PROTOCOL: Non-enzymatic stability
# Type: physicochemical
# EXPERIMENTAL_SETUP: pH 7.4, 48 h
API: value field is a number in %; no unit string.

Field request: percent BAPC hydrolysis/cleavage (non-enzymatic) in phosphate buffer | item: COc1ccc(/C=C\c2cc(OC)c(OC)c(OC)c2)c(OC(C)(C)c2ccc([N+](=O)[O-])s2)c1O
100

Field request: percent BAPC hydrolysis/cleavage (non-enzymatic) in phosphate buffer | item: COc1cc(/C=C\c2ccc(OC)c3c2OC(c2ccc([N+](=O)[O-])s2)O3)cc(OC)c1OC (stereo not shown)
0

* * *

# TEST_PROTOCOL: Non-enzymatic stability
# Format: physicochemical
# EXPERIMENTAL_SETUP: pH 7.4, 48 h
Marks after values point to notes of the source that are not given here.
Give measured percent BAPC hydrolysis/cleavage (non-enzymatic) in phosphate buffer for each item. Keep answers brief.

Field request: percent BAPC hydrolysis/cleavage (non-enzymatic) in phosphate buffer | item: COc1cc(/C=C\c2ccc(OC)c(OCc3ccc([N+](=O)[O-])s3)c2O)cc(OC)c1OC [compound 39]
0^b %

Field request: percent BAPC hydrolysis/cleavage (non-enzymatic) in phosphate buffer | item: COc1ccc(/C=C\c2cc(OC)c(OC)c(OC)c2)c(OC(C)c2ccc([N+](=O)[O-])s2)c1O (stereo not drawn) [compound 38]
0.5^c %

Field request: percent BAPC hydrolysis/cleavage (non-enzymatic) in phosphate buffer | item: COc1cc(/C=C\c2ccc(OC)c3c2OC(C)(c2ccc([N+](=O)[O-])s2)O3)cc(OC)c1OC (stereo not drawn) [compound 36]
0%
